Test system: Mycobacterium tuberculosis
Assay: Antimycobacterial activity against Mycobacterium tuberculosis H37Rv after 16 to 24 hrs by microplate alamar blue assay
Assay type: functional
log10 of MIC reference
QUANTITY_MEASURED: log10 of MIC (log10 of the value in µM)

>  <COMPOUND_STRUCTURE>
COc1ccc(-c2ccc(CO[C@@H]3COc4nc([N+](=O)[O-])cn4C3)s2)cc1F

>  <MEAS_VALUE>
-1.22

$$$$
>  <COMPOUND_STRUCTURE>
COc1ccc(-c2nc(CO[C@@H]3COc4nc([N+](=O)[O-])cn4C3)cs2)cn1

>  <MEAS_VALUE>
0.15

$$$$
>  <COMPOUND_STRUCTURE>
O=[N+]([O-])c1cn2c(n1)OC[C@@H](OCc1cn(-c3ccc(C(F)(F)F)cc3)nn1)C2

>  <MEAS_VALUE>
-0.96

$$$$
>  <COMPOUND_STRUCTURE>
O=[N+]([O-])c1cn2c(n1)OC[C@@H](OCc1cnn(-c3ccccc3)n1)C2

>  <MEAS_VALUE>
-0.60

$$$$
>  <COMPOUND_STRUCTURE>
O=[N+]([O-])c1cn2c(n1)OC[C@@H](OCc1ccc(-c3ccc(C(F)(F)F)cc3)s1)C2

>  <MEAS_VALUE>
-0.80

$$$$
>  <COMPOUND_STRUCTURE>
O=[N+]([O-])c1cn2c(n1)OC[C@@H](OCc1cc(-c3ccc(F)cc3)no1)C2

>  <MEAS_VALUE>
0.18

$$$$
>  <COMPOUND_STRUCTURE>
Cn1nc(-c2ccc(C(F)(F)F)cc2)cc1CO[C@@H]1COc2nc([N+](=O)[O-])cn2C1

>  <MEAS_VALUE>
-1.22

$$$$
>  <COMPOUND_STRUCTURE>
Cn1c(CO[C@@H]2COc3nc([N+](=O)[O-])cn3C2)cnc1-c1ccc(C(F)(F)F)cc1

>  <MEAS_VALUE>
-0.19

$$$$
>  <COMPOUND_STRUCTURE>
N#Cc1ccc(-c2ccc(CO[C@@H]3COc4nc([N+](=O)[O-])cn4C3)s2)cc1

>  <MEAS_VALUE>
-1.26

$$$$

---

Test: Metabolic stability in mouse liver microsomes after 1 hr at 37 degC
Format: ADME, Microsome
Details: liver microsomes, read-out: Stability
QUANTITY_MEASURED: remaining at 1 h (%)

>  <COMPOUND_STRUCTURE>
O=[N+]([O-])c1cn2c(n1)OC[C@@H](OCc1cn(-c3ccc(OC(F)(F)F)cc3)nn1)C2

>  <SCALE_UNIT>
%

>  <MEAS_VALUE>
74

$$$$
>  <COMPOUND_STRUCTURE>
O=[N+]([O-])c1cn2c(n1)OC[C@@H](OCc1nnn(-c3ccc(OC(F)(F)F)cc3)n1)C2

>  <SCALE_UNIT>
%

>  <MEAS_VALUE>
81

$$$$
>  <COMPOUND_STRUCTURE>
N#Cc1ccc(-c2ccc(CO[C@@H]3COc4nc([N+](=O)[O-])cn4C3)s2)cc1

>  <SCALE_UNIT>
%

>  <MEAS_VALUE>
54

$$$$
>  <COMPOUND_STRUCTURE>
O=[N+]([O-])c1cn2c(n1)OC[C@@H](OCc1cnn(-c3ccc(OC(F)(F)F)cc3)c1)C2

>  <SCALE_UNIT>
%

>  <MEAS_VALUE>
64

$$$$
>  <COMPOUND_STRUCTURE>
Cn1nc(-c2ccc(OC(F)(F)F)cc2)cc1CO[C@@H]1COc2nc([N+](=O)[O-])cn2C1

>  <SCALE_UNIT>
%

>  <MEAS_VALUE>
81

$$$$
>  <COMPOUND_STRUCTURE>
O=[N+]([O-])c1cn2c(n1)OC[C@@H](OCc1ccc(-c3ccc(C(F)(F)F)nc3)s1)C2

>  <SCALE_UNIT>
%

>  <MEAS_VALUE>
77

$$$$
